Every entry's value here was drawn from PubChem BioAssay (NCI).

Tested on: MDA-MB-231 breast
Assay: NCI tumour cell line growth inhibition, 48 h
RESULT_TYPE: TGI

The following molecules have reported results that may help.
S=C1NC2=C(CSC/C2=C\c2ccccc2)C(c2ccccc2)N1 (stereo not drawn)    > 100 µM
COc1ccc2c(NCCCCCCNc3c4ccccc4nc4cc(OC)ccc34)c3ccccc3nc2c1    0.385 µM

Form field: reported TGI of O=S1(=O)C[C@@H](NCc2ccccc2)[C@H](NCc2ccccc2)C1
> 100 µM

* * *

System: HOP-62 NSCLC
Assay: NCI tumour cell line growth inhibition, 48 h
RESULT_TYPE: TGI

Please review the entries below; each comes with its answer.
c1cnn2ncc(-c3ccnc(Nc4ccc5c(c4)OCCO5)n3)c2c1    > 25 µM
CCOC(=O)c1ccc(Nc2nc3ccc(C(F)(F)F)cc3nc2C(=O)OCC)cc1    > 100 µM
Cc1ccc(NC(=O)/C(Cc2nc3ccc([N+](=O)[O-])cc3[nH]c2=O)=N\NC(=O)C[n+]2ccccc2)c(C)c1    > 100 µM

What reported TGI corresponds to O=C1c2ccccc2-c2c1c1c(NCCCO)nc3ccccc3c1n2Cc1ccccc1 on HOP-62 NSCLC?
35.7 µM
